Biological target: T1, Nluc-NPR-11-eYFP (C. elegans neuropeptide receptor NPR-11, wild type) (C. elegans, UniProt Q18179 1-402)
T1 sequence (looked up): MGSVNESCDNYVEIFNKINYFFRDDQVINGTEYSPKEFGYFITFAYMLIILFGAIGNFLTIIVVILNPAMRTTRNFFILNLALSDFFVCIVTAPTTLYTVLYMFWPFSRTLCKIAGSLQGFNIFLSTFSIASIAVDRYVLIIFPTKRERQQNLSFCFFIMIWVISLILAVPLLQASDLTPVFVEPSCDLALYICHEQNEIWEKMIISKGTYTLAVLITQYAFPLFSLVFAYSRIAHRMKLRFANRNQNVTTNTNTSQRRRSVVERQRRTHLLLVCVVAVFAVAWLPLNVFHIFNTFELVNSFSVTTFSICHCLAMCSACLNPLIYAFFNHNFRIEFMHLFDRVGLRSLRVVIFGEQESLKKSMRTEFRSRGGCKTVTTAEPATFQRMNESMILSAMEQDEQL
Experiment: FRET or BRET
Where no end group is shown, it is not given here.
Below, each entry is listed with its recorded Ki.
parameter-measured: Ki (nM)

>>> print(df.to_string())
                                     binder  unit  assay_result
0   GLGPRPLRF-NH2 [FLP-21 (GLGPRPLRFamide)]    nM           107
1  ADISTFASAINNAGRLRY-NH2 [FLP-34–1 (ADISTFASAINNAGRLRYamide)]    nM           107
